- TARGET OR TEST SYSTEM: T1, Human Siglec-9 (human, UniProt Q9Y336 18-463)
- T1 construct: On transfected CHO cells; also on YTS and KHYG-1 transfectants, primary NK cells and moDC; also called huSiglec-9; CD329
- T1 sequence (Q9Y336 18-463): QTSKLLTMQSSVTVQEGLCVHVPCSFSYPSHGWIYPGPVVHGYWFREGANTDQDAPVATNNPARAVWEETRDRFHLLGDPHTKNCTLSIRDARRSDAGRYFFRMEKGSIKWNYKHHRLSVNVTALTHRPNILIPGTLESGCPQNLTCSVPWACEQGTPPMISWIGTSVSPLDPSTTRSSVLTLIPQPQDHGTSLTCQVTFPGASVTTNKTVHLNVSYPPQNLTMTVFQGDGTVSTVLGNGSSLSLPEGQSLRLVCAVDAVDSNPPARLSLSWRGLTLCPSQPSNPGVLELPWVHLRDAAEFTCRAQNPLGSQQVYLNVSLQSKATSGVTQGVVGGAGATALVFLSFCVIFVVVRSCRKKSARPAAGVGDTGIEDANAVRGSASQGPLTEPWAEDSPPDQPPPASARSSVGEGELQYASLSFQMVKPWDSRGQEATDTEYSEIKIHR
- ASSAY OVERVIEW: flow cytometry, CHO Siglec-9 cells, mean n = 2
METRIC NAME: EC50 (µg/mL)
Express your answer in µg/mL, writing the number without its unit.

Field: example entries. Status: answers known.
mAbD H0L0 (antibody, V domains shown, constant region not specified) VH: QVQLVQSGSELKKPGASVKVSCKASGYTFTDYSMHWVRQAPGQGLEWMGWIITETGEPTYADDFRGRFVFSLDTSVSTAYLQISSLKAEDTAVYYCARDFDGYWGQGTTVTVSS VL: DIQMTQSPSSLSASVGDRVTITCRASENIYSYLAWYQQKPGKAPKLLIYNAKTLTEGVPSRFSGSGSGTDFTLTISSLQPEDFATYYCQHHYGFPWTFGGGTKVEIK : 0.019
mAbD H1L2 (antibody, V domains shown, constant region not specified) VH: QVQLVQSGSELKKPGASVKVSCKASGYTFTDYSMHWVRQAPGQGLKWMGWIITETGEPTYADDFRGRFVFSLDTSVSTAYLQISSLKAEDTAVYYCARDFDGYWGQGTTVTVSS VL: DIQMTQSPSSLSASVGDRVTITCRASENIYSYLAWYQQKPGKAPKFLIYNAKTLTEGVPSRFRGSGSGTDFTLTISSLQPEDFATYYCQHHYGFPWTFGGGTKVEIK : 0.019

Please find the next binder below.
Task: Field request: EC50 | item: mAbA H2L0 (antibody, V domains shown, constant region not specified) VH: QVQLVQSGAEVKKPGSSVKVSCKASYFTFSSYWMHWVRQAPGQGLEWMGEINPSNGHTNYNEKFESRVTITADESTSTAYMELSSLRSEDTAVYYCANGVESYDFDDALDYWGQGTTVTVSS VL: DIQMTQSPSSLSASVGDRVTITCRASQDINNYLNWYQQKPGKAPKLLIYYTSRLHSGVPSRFSGSGSGTDFTFTISSLQPEDIATYYCQQGNTLPFTFGGGTKVEIK
Result: 0.034
